Tested on: CXCR4 tropic HIV NL4-3
Test: HIV-infection study in HeLa37 cells (HIV antigen-positive cell count, % control)
Assay type: cell-based, HIV-1
Settings: Human immunodeficiency virus 1, NL43; HeLa37 cells, 40 h, MOI=0.01; FIG. 1/FIG. 2; read-out: IC50 (anti-HIV activity)
Kindly state IC50 for each of the entries shown.

{"columns": ["COMPOUND", "IC50"],
 "data": [
  ["CO[C@@H]1OC2COC(=O)c3cc(O)c(O)c(O)c3-c3c(cc(O)c(O)c3O)C(=O)O[C@H]2C(OC(=O)c2cc(O)c(O)c(O)c2)C1OC(=O)c1cc(O)c(O)c(O)c1 (some centres unmarked)", "~120 nM"]
]}

Prompt line: Lookup: IC50 / CXCR4 tropic HIV NL4-3 / CO[C@@H]1OC2COC(=O)c3cc(O)c(O)c(O)c3-c3c(cc(O)c(O)c3O)C(=O)O[C@H]2C(O)C1O (some centres unmarked)
Response line: ~110 nM
